- test-protocol: Single dose pharmacokinetic study after oral administration, with and without ABT pre-dosing
- Format: in vivo, female Balb/c mice
- particulars: mouse, in vivo; female Balb/c mice, single oral dose 200 mg/kg, no ABT
Catalogue of Cmax readings, one per entry.

# compound-string, Cmax [ng/mL]
records = [
    ("Cc1ccc2nc(C)c(C(=O)NCc3ccc(C(F)(F)F)cc3)n2c1", 6730),
    ("[2H]c1c(C([2H])([2H])[2H])c([2H])n2c(C(=O)NCc3ccc(C(F)(F)F)cc3)c(C)nc2c1[2H]", 19200),
]

----------
- test-protocol: Single dose pharmacokinetic study after oral administration, with and without ABT pre-dosing
- Format: in vivo, female Balb/c mice
- particulars: female, Balb/c, mouse, in vivo, po, 200 mg/kg, 12 h; PO 200 mg/kg, no ABT; read-out: Drug plasma concentration, individual mice
Catalogue of concentration at 12 h readings, one per entry.

# compound-string, concentration at 12 h (ng/mL)
records = [
    ("Cc1ccc2nc(C)c(C(=O)NCc3ccc(C(F)(F)F)cc3)n2c1", 40.1),
    ("[2H]c1c(C([2H])([2H])[2H])c([2H])n2c(C(=O)NCc3ccc(C(F)(F)F)cc3)c(C)nc2c1[2H]", 2),
]

----------
- test-protocol: Single dose pharmacokinetic study after oral administration, with and without ABT pre-dosing
- Assay type: in vivo, female Balb/c mice
- particulars: female, Balb/c, mouse, in vivo, po, 200 mg/kg, 0.5 h; PO 200 mg/kg, no ABT; read-out: Drug plasma concentration, individual mice

# compound-string, concentration at 0.5 h
data = [
    ("Cc1ccc2nc(C)c(C(=O)NCc3ccc(C(F)(F)F)cc3)n2c1", "7.88 µg/mL"),
    ("[2H]c1c(C([2H])([2H])[2H])c([2H])n2c(C(=O)NCc3ccc(C(F)(F)F)cc3)c(C)nc2c1[2H]", "14.7 µg/mL"),
]

----------
- test-protocol: Single dose pharmacokinetic study after oral administration, with and without ABT pre-dosing
- Assay type: in vivo, female Balb/c mice
- particulars: female, Balb/c, mouse, in vivo, po, 200 mg/kg, 2 h; PO 200 mg/kg, no ABT; read-out: Drug plasma concentration, Average
Catalogue of concentration at 2 h readings, one per entry.

# compound, measure-unit, concentration at 2 h
rows = [
    ("Cc1ccc2nc(C)c(C(=O)NCc3ccc(C(F)(F)F)cc3)n2c1 [ND-011176]", "ng/mL", 6100),
    ("[2H]c1c(C([2H])([2H])[2H])c([2H])n2c(C(=O)NCc3ccc(C(F)(F)F)cc3)c(C)nc2c1[2H] [ND-012101]", "ng/mL", 5190),
]

----------
- test-protocol: Single dose pharmacokinetic study after oral administration, with and without ABT pre-dosing
- Type: in vivo, female Balb/c mice
- particulars: mouse, in vivo; female Balb/c mice, single oral dose 200 mg/kg, no ABT

# molecule, Tmax [min]
measured = [
    ("Cc1ccc2nc(C)c(C(=O)NCc3ccc(C(F)(F)F)cc3)n2c1 [ND-011176]", 30),
    ("[2H]c1c(C([2H])([2H])[2H])c([2H])n2c(C(=O)NCc3ccc(C(F)(F)F)cc3)c(C)nc2c1[2H] [ND-012101]", 60),
]

----------
- test-protocol: Single dose pharmacokinetic study after oral administration, with and without ABT pre-dosing
- Type: in vivo, female Balb/c mice
- particulars: female, Balb/c, mouse, in vivo, po, 200 mg/kg, 4 h; PO 200 mg/kg, no ABT; read-out: Drug plasma concentration, Average

# compound-string, concentration at 4 h [ng/mL]
measured = [
    ("Cc1ccc2nc(C)c(C(=O)NCc3ccc(C(F)(F)F)cc3)n2c1", 600),
    ("[2H]c1c(C([2H])([2H])[2H])c([2H])n2c(C(=O)NCc3ccc(C(F)(F)F)cc3)c(C)nc2c1[2H]", 1940),
]

----------
- test-protocol: Single dose pharmacokinetic study after oral administration, with and without ABT pre-dosing
- Type: in vivo, female Balb/c mice
- particulars: mouse, in vivo; female Balb/c mice, single oral dose 200 mg/kg, ABT 100 mg/kg PO 2 h before; manually added from the TA concentration data
Catalogue of Cmax readings, one per entry.
assay-endpoint: Cmax

# compound, assay-endpoint, meas-value
rows = [
    ("Cc1ccc2nc(C)c(C(=O)NCc3ccc(C(F)(F)F)cc3)n2c1 [ND-011176]", "Cmax", "44800 ng/mL"),
    ("[2H]c1c(C([2H])([2H])[2H])c([2H])n2c(C(=O)NCc3ccc(C(F)(F)F)cc3)c(C)nc2c1[2H] [ND-012101]", "Cmax", "48400 ng/mL"),
]
